Where these numbers come from: PubChem BioAssay AID1963842

Tested on: 677734-321-R-J1-PDC complex spheroid viability;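 further: spheroids exposed to compounds for one week; 100% = vehicle DMSO treated spheroids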
Assay explanation: Anticancer human tumor 677734-321-R-J1-PDC patient-derived soft tissue sarcoma cell line growth inhibition [POLQ]; active means viability on the fitted dose curve at most 10% of control; inactive means the rest
Assay setup: second compound 0.316 µM; first compound 3.16 µM
Hi! Could you answer with just one of these? class 1 (active), class 0 (inactive)

Input line: Entry O=C(c1cc(Cc2n[nH]c(=O)c3ccccc23)ccc1F)N1CCN(C(=O)C2CC2)CC1 + Nc1ccc(C#CCN(C(=O)Cc2ncc(C(F)(F)F)cc2C(F)(F)F)c2ccc(F)cc2)nn1 : call = ?
Output line: class 0

Input line: What is the recorded call for this compound in the test? Nc1ccn(C2OC(CO)C(O)C2(F)F)c(=O)n1 (stereo unspecified) + COC1C(OC(N)=O)C(O)C(Oc2ccc3c(O)c(NC(=O)c4ccc(O)c(CC=C(C)C)c4)c(=O)oc3c2C)OC1(C)C
Output line: class 0

Input line: State the result this test recorded for COc1cc(C2c3cc4c(cc3C(OC3OC5COC(C)OC5C(O)C3O)C3COC(=O)C23)OCO4)cc(OC)c1O (stereo unspecified) + Cc1cccc(N(C)C(=O)C2C(O)CCN2c2nc(C)cc(C(F)(F)F)c2C#N)c1 .
Output line: class 0

Input line: // param item: CC1COCCN1c1cc(C2(O)CC3CCC(C2)O3)c2cnn(-c3ccn[nH]3)c2n1 (stereo unspecified) + Nc1ccc(C#CCN(C(=O)Cc2ncc(C(F)(F)F)cc2C(F)(F)F)c2ccc(F)cc2)nn1 ; yields the recorded call
Output line: class 1

Input line: Record request — test call for Nc1ccn(C2OC(CO)C(O)C2(F)F)c(=O)n1 (stereo unspecified) + Cc1cccc(N(C)C(=O)C2C(O)CCN2c2nc(C)cc(C(F)(F)F)c2C#N)c1
Output line: class 0

Input line: Per the records of this test, what outcome belongs to CCc1cc2c(N3CCc4c(cc(Cn5ccnc5)cc4-c4cn(C)nc4C(F)(F)F)C3=O)cc(C)nc2c(OC)n1 + COC1C(OC(N)=O)C(O)C(Oc2ccc3c(O)c(NC(=O)c4ccc(O)c(CC=C(C)C)c4)c(=O)oc3c2C)OC1(C)C ?
Output line: class 0

Input line: Which outcome did this test record for the compound CC1COCCN1c1cc(C2(S(C)(=N)=O)CC2)nc(-c2ccnc3[nH]ccc23)n1 (stereo unspecified) + Nc1ccc(C#CCN(C(=O)Cc2ncc(C(F)(F)F)cc2C(F)(F)F)c2ccc(F)cc2)nn1 ?
Output line: class 0

Input line: I would be grateful if you could indicate the recorded call for CCCS(=O)(=O)Nc1ccc(F)c(C(=O)c2c[nH]c3ncc(-c4ccc(Cl)cc4)cc23)c1F + Cc1cccc(N(C)C(=O)C2C(O)CCN2c2nc(C)cc(C(F)(F)F)c2C#N)c1 .
Output line: class 0

Input line: Write down the call the test reported for this compound. Item: COc1cccc2c1C(=O)c1c(O)c3c(c(O)c1C2=O)CC(O)(C(=O)CO)CC3OC1CC(N)C(O)C(C)O1 (stereo unspecified) + COC1C(OC(N)=O)C(O)C(Oc2ccc3c(O)c(NC(=O)c4ccc(O)c(CC=C(C)C)c4)c(=O)oc3c2C)OC1(C)C
Output line: class 1

Input line: State the result this test recorded for O=c1[nH]cc(F)c(=O)[nH]1 + COC1C(OC(N)=O)C(O)C(Oc2ccc3c(O)c(NC(=O)c4ccc(O)c(CC=C(C)C)c4)c(=O)oc3c2C)OC1(C)C .
Output line: class 0

Input line: How was CC1COCCN1c1cc(-c2ccnn2C)c2ccnc(-c3ccn[nH]3)c2n1 (stereo unspecified) + Nc1ccc(C#CCN(C(=O)Cc2ncc(C(F)(F)F)cc2C(F)(F)F)c2ccc(F)cc2)nn1 classified in this test?
Output line: class 1

Input line: Which outcome did this test record for the compound O=C(Nc1ccc(O)c(NS(=O)(=O)c2ccc(F)cc2)c1)c1ccc(-c2ccccc2)cc1 + COC1C(OC(N)=O)C(O)C(Oc2ccc3c(O)c(NC(=O)c4ccc(O)c(CC=C(C)C)c4)c(=O)oc3c2C)OC1(C)C ?
Output line: class 0

Input line: Call for entry C#Cc1c(F)ccc2cc(O)cc(-c3ncc4c(N5CC6CCC(C5)N6)nc(OCC56CCCN5CC(F)C6)nc4c3F)c12 (stereo unspecified) + Nc1ccc(C#CCN(C(=O)Cc2ncc(C(F)(F)F)cc2C(F)(F)F)c2ccc(F)cc2)nn1 :
Output line: class 0

Input line: Could you please tell me the result logged for CCCS(=O)(=O)Nc1ccc(F)c(C(=O)c2c[nH]c3ncc(-c4ccc(Cl)cc4)cc23)c1F + COC1C(OC(N)=O)C(O)C(Oc2ccc3c(O)c(NC(=O)c4ccc(O)c(CC=C(C)C)c4)c(=O)oc3c2C)OC1(C)C in this assay?
Output line: class 0

Input line: Given CCc1cc2c(N3CCc4c(cc(Cn5ccnc5)cc4-c4cn(C)nc4C(F)(F)F)C3=O)ccnc2c(OC)n1 + Cc1cccc(N(C)C(=O)C2C(O)CCN2c2nc(C)cc(C(F)(F)F)c2C#N)c1 , state the outcome it received in this test.
Output line: class 0

Input line: Can you look up the reported call for CC1COCCN1c1cc(C2(O)CC3CCC(C2)O3)c2cnn(-c3ccn[nH]3)c2n1 (stereo unspecified) + Cc1cccc(N(C)C(=O)C2C(O)CCN2c2nc(C)cc(C(F)(F)F)c2C#N)c1 for me?
Output line: class 0

Input line: Kindly provide the recorded test outcome for the following compound: COc1cc2cc(C(=O)CCC(=O)O)sc2cc1OC + Cc1cccc(N(C)C(=O)C2C(O)CCN2c2nc(C)cc(C(F)(F)F)c2C#N)c1
Output line: class 0

Input line: I would be grateful if you could indicate the recorded call for CC1COCCN1c1cc(-c2ccnn2C)c2ccnc(-c3ccn[nH]3)c2n1 (stereo unspecified) + COC1C(OC(N)=O)C(O)C(Oc2ccc3c(O)c(NC(=O)c4ccc(O)c(CC=C(C)C)c4)c(=O)oc3c2C)OC1(C)C .
Output line: class 0

Input line: What classification did CCc1cc2c(N3CCc4c(cc(Cn5ccnc5)cc4-c4cn(C)nc4C(F)(F)F)C3=O)cc(C)nc2c(OC)n1 + Cc1cccc(N(C)C(=O)C2C(O)CCN2c2nc(C)cc(C(F)(F)F)c2C#N)c1 end up with in this test?
Output line: class 0

Input line: // outcome(item) with item = Nc1ccn(C2OC(CO)C(O)C2(F)F)c(=O)n1 (stereo unspecified) + Nc1ccc(C#CCN(C(=O)Cc2ncc(C(F)(F)F)cc2C(F)(F)F)c2ccc(F)cc2)nn1
Output line: class 1

Input line: What is the recorded call for this compound in the test? COc1cccc2c1C(=O)c1c(O)c3c(c(O)c1C2=O)CC(O)(C(=O)CO)CC3OC1CC(N)C(O)C(C)O1 (stereo unspecified) + Nc1ccc(C#CCN(C(=O)Cc2ncc(C(F)(F)F)cc2C(F)(F)F)c2ccc(F)cc2)nn1
Output line: class 1
